The measured values listed here are drawn from patent US12686690B2.

Recorded pEC50 for the following molecules
Molecular target: hOX2R (Homo sapiens)
Assay: hOX2R IPone assay (orexin receptor agonism)
Details: orexin receptor agonist, IPone readout; read-out: hOX2R_IPone EC50
pEC50 here is simply -log10 of the concentration when that concentration is written in mol/L.

Record CCN1C(=O)NC(C(N)=O)CCCCCOc2nc(cn3ccnc23)-c2cc(ncc2F)[C@H]1C (stereo partly drawn) [Example 225] / hOX2R (Homo sapiens), pEC50 recorded as 6.54

====

Biological target: hOX2R (Homo sapiens, UniProt O43614)
Construct: expressed in transfected cells; host or cells: CHO cells (G418 selection)
Sequence (O43614 whole entry): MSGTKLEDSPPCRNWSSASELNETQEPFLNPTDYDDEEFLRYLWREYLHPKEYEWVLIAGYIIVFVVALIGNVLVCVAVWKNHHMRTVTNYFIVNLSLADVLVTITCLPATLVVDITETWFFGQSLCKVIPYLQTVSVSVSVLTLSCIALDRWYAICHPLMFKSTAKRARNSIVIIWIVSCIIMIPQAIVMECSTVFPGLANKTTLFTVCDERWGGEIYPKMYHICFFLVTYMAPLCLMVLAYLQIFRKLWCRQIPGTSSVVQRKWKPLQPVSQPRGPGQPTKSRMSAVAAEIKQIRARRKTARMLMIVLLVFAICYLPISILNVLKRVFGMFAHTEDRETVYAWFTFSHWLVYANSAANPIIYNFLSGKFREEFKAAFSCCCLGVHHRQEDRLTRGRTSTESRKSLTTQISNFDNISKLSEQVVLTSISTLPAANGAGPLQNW
Experiment: hOX2R IPone assay (orexin receptor agonism)
Type: cell-based
Conditions: maximal activation, IPone readout
measured-attribute: hOX2R_Ipone max %act (%)
Field: numeric (%). Do not append units.

compound	hOX2R_Ipone max %act / %
CCN1C(=O)NCCCC(C)(C)COc2nc(cn3ccnc23)-c2cccc(c2)[C@H]1C [Example 13]	98.2
CCN1C(=O)N[C@@H](CCC(F)(F)F)CCOCCOc2nc(cn3ncnc23)-c2c(OC)cnc(c2F)C1C (stereo partly shown) [Example 179]	100.8
CCN1C(=O)N[C@@H](CCC(F)(F)F)CCCCCOc2nc(cn3ccnc23)C2=CN=C(S2)C1C (stereo partly shown) [Example 95]	99.78
CCN1C(=O)NCCNCCCOc2cn3ccnc3c(n2)-c2cccc(c2)[C@H]1C [Example 10]	97.61
CCN1C(=O)N[C@@H](CCC(F)(F)F)CCOCCOc2nc(cn3ncnc23)-c2cc(ncc2OC)[C@H]1C [Example 164]	100.1

# hOX2R_Ipone max %act (compound: CCN1C(=O)N[C@@H](CCC(C)(F)F)CCCCCOc2nc(cc3ncnn23)-c2cc(ncc2OC)[C@H]1C [Example 176] ) is 99.6

Record CCN1C(=O)N[C@@H](CCC(F)(F)F)CCCCCOc2cc(cn3ccnc23)-c2cc(ncn2)C1C (single isomer, unassigned) [Example 96A] , field hOX2R_Ipone max %act: 100.3
